# assay system: UniProt P55055
# assay overview: biochemical
# Type: biochemical
# test conditions: read-out: FRET LXRβ EC50
Reported values of EC50 for individual entries
property label: EC50

{"molecule": "Cc1ccc(CN2CCN(c3cccc(S(C)(=O)=O)c3)C[C@@H]2c2ccccc2)cc1 (single isomer, unassigned) [46-6]", "assay system": "UniProt P55055", "meas value": "> 50 µM"}
{"molecule": "CC(C)(O)c1ccc(CN2CCN(c3cccc(S(C)(=O)=O)c3)C[C@H]2c2ccccc2)cc1 [10-11]", "assay system": "UniProt P55055", "meas value": "> 50 µM"}
{"molecule": "C[C@@]1(c2ccccc2)CN(c2cccc(S(C)(=O)=O)c2)CCN1Cc1ccc(C(F)(F)F)c(Cl)c1 (single isomer, unassigned) [46-35]", "assay system": "UniProt P55055", "meas value": "> 50 µM"}

* * *

# assay system: Gal4 DNA binding domain fused to the LBD of LXRβ in HEK293 cells (Homo sapiens (Human), UniProt P55055)
# Sequence (P55055 222-460 limits assumed): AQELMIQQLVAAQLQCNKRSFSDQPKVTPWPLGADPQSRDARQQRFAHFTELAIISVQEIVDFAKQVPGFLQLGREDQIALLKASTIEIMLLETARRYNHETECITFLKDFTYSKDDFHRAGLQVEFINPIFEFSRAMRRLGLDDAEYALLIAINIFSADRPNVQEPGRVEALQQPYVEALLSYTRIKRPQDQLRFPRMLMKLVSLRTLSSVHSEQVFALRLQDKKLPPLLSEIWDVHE
# assay overview: cell-based
# test conditions: agonist mode

{"compound": "CC(C)[C@@H]1CN(c2ccc(F)c(S(C)(=O)=O)c2)CCN1c1ncc(C(F)(F)F)c(C(N)=O)n1 [4-7]", "Cell LXRβ efficacy": "477 (61) %"}
{"compound": "CC(C)[C@@H]1CN(c2ccc(C#N)c(S(C)(=O)=O)c2)CCN1c1ncc([C@H](C)O)c(C(F)(F)F)n1 (single isomer, unassigned) [12-5]", "Cell LXRβ efficacy": "521 (40) %"}
{"compound": "CC(C)[C@@H]1CN(c2ccc(F)c(S(C)(=O)=O)c2)CCN1c1nc(C(F)(F)F)c(C(C)(C)O)s1 [Cpd No 26-1]", "Cell LXRβ efficacy": "185 (98) %"}
{"compound": "NS(=O)(=O)c1cccc(N2CCN(C[C@H]3CC[C@@H](C(F)F)CC3)[C@@H](c3ccccc3)C2)c1 (single isomer, unassigned) [48-23]", "Cell LXRβ efficacy": "14%"}

* * *

In this section we review reported pKi values for a set of compounds.
# assay system: UniProt:Q13133
# Sequence (Q13133 209-447): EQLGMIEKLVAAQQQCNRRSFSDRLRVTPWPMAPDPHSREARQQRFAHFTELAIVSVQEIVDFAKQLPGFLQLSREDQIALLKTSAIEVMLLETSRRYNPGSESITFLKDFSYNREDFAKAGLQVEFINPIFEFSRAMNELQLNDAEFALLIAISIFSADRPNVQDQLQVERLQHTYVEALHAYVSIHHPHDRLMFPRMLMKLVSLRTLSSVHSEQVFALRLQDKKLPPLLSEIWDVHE
# assay overview: LXR α radioligand binding assay (SPA, competition with [3H]TO901317)
# test conditions: read-out: LXRα Binding Ki
pKi: −log10 of the molar value.
property label: pKi

{"compound smiles": "CC(C)[C@@H]1CN(c2ccc(F)c(S(C)(=O)=O)c2)CCN1c1nc(C(F)(F)F)cc(=O)[nH]1", "property label": "pKi", "meas value": "< 5.48"}
{"compound smiles": "COC(=O)NCCCN(C)C(=O)c1cnc(N2CCN(c3ccc(F)c(S(C)(=O)=O)c3)C[C@H]2C(C)C)nc1C(F)(F)F", "property label": "pKi", "meas value": "< 5.48"}
{"compound smiles": "CC(C)[C@@H]1CN(c2ccc(CO)c(S(C)(=O)=O)c2)CCN1c1ccnc(C(N)=O)c1", "property label": "pKi", "meas value": "< 5.48"}
